System: MDR1-MDCK cell monolayers
procedure summary: MDCK-MDR1 permeability assay for blood-brain-barrier penetration potential (Papp, efflux ratio)
Format: in vitro ADME
assay setup: 5 μM, apical to basolateral, 120 minutes, pH 7.4
measured parameter: MDCK-MDR1: % Recov A-B (%)

# compound, unit symbol, test value
records = [
    ("Cn1cc(-c2ccc(-c3ncc(O[C@H]4C[C@@H]5CCC[C@@H](N5)[C@H]4F)nn3)c(O)c2)cn1 (single isomer, unassigned)", "%", 83),
    ("CN(C)C(=O)c1cc2cc(O)c(-c3ncc(N(C)[C@@H]4C[C@H]5CC[C@H](N5)[C@@H]4F)nn3)cc2o1 (single isomer, unassigned)", "%", 89),
    ("Cn1cc(-c2ccc(-c3ncc(O[C@@H]4C[C@H]5CCC[C@H](N5)[C@@H]4F)nn3)c(O)c2)cn1 (single isomer, unassigned)", "%", 69),
    ("CN(c1cnc(-c2ccc(-c3cnn(C)c3)cc2O)nn1)[C@H]1C[C@@H]2CC[C@@H](N2)[C@H]1F (single isomer, unassigned)", "%", 62),
    ("CN(c1cnc(-c2ccc(-c3ccn(C)c(=O)c3)cc2O)nn1)[C@@H]1C[C@H]2CC[C@H](N2)[C@@H]1F (single isomer, unassigned)", "%", 81),
    ("CN(c1cnc(-c2ccc(-c3ccn(C)c(=O)c3)cc2O)nn1)[C@H]1C[C@@H]2CC[C@@H](N2)[C@H]1F (single isomer, unassigned)", "%", 95),
    ("CN(c1cnc(-c2ccc(-c3cnn(C)c3)cc2O)nn1)[C@@H]1C[C@H]2CC[C@H](N2)[C@@H]1F (single isomer, unassigned)", "%", 67),
    ("CN(c1cnc(-c2ccc(-c3cn[nH]c3)cc2O)nn1)[C@@H]1C[C@H]2CC[C@H](N2)[C@@H]1F (single isomer, unassigned)", "%", 78),
    ("CN(C)C(=O)c1cc2cc(O)c(-c3ncc(N(C)[C@H]4C[C@@H]5CC[C@@H](N5)[C@H]4F)nn3)cc2o1 (single isomer, unassigned)", "%", 91),
    ("CN(c1cnc(-c2ccc(-c3cn[nH]c3)cc2O)nn1)[C@H]1C[C@@H]2CC[C@@H](N2)[C@H]1F (single isomer, unassigned)", "%", 93),
]
